Values from patent US20250296938A1

# test_target: Rac-1 (Homo sapiens)
# procedure_details: Ras GTP binding domain inhibition assay (Cy3-GTP/Cy5-GTP competition)
# measurement_context: with SOS, read-out: Rac-1 + SOS: % inh.
Reported inhibition at 20 µM by item:

Problem: Could you tell me which inhibition at 20 µM is on file for COc1nscc1-c1sc2nc(-c3nccn3C)nc(N3CCC(OC)C3)c2c1-c1ccccc1 (centres unmarked) [drawing 975] ?
Solution: 26 to 50%

Problem: Value lookup for inhibition at 20 µM; key = COCCNc1nc(-c2nccn2C)nc2sc(-c3cc(OC)ccc3Cl)c(-c3ccccc3)c12 [drawing 1006]
Solution: 26 to 50%

Problem: Entry CCOC1CCN(c2nc(-c3nccn3C)nc3sc(-c4ccn(C)n4)c(-c4ccccc4)c23)C1 (centres unmarked) has what inhibition at 20 µM?
Solution: 26 to 50%

Problem: Query: inhibition at 20 µM; subject: Cc1c(-c2ccn(C)n2)sc2nc(-c3nccn3C)nc(NCCOC(=O)N(C)C)c12 [drawing 1053]
Solution: 51 to 75%

Problem: Returns the measured inhibition at 20 µM for the input molecule. Input: CC(C)NC(=O)c1nc(-c2nccn2C)nc(O)c1O [drawing 965]
Solution: 51 to 75%

###

# test_target: KRas G12D mutant (Homo sapiens, UniProt P01116, G12D)
# Construct: fused on or other part: His tag, used for capture on nickel-coated plates
# procedure_details: Ras GTP binding domain inhibition assay (Cy3-GTP/Cy5-GTP competition)
# measurement_context: at 20 μM, with SOS; read-out: KRas G12D mutant + SOS: % inh.
inhibition at 20 µM: recorded values

Some compounds with recorded inhibition at 20 µM:
{"compound": "COc1cccc(-c2sc3nc(-c4nccn4C)nc(N4CCC(OC)C4)c3c2-c2ccccc2)c1F.Cl (stereo not drawn) [drawing 973]", "test_target": "KRas G12D mutant (Homo sapiens, UniProt P01116, G12D)", "inhibition at 20 µM": "51 to 75%"}
{"compound": "COCCn1cc(Nc2nc(-c3ccccn3)nc(OC)c2OC)cn1 [drawing 928]", "test_target": "KRas G12D mutant (Homo sapiens, UniProt P01116, G12D)", "inhibition at 20 µM": "1 to 25%"}

Next, consider the following compound.
Problem: Report inhibition at 20 µM for Cn1ccnc1-c1nc(O)c(O)c(C(=O)NC2CCCC2)n1 [drawing 962] tested on KRas G12D mutant (Homo sapiens, UniProt P01116, G12D).
Solution: 26 to 50%

###

The reader will find reported inhibition at 20 µM values listed item by item below.
# test_target: Rac-1 (Homo sapiens, UniProt P63000)
# procedure_details: Ras GTP binding domain inhibition assay (Cy3-GTP/Cy5-GTP competition)
# measurement_context: with SOS, read-out: Rac-1 + SOS: % inh.

Below are worked cases with known answers.
{"molecule": "COc1ccc(-c2sc3nc(-c4nccn4C)nc(N4CCC(OC)C4)c3c2-c2ccccc2)cn1 (stereo not shown) [drawing 971]", "test_target": "Rac-1 (Homo sapiens, UniProt P63000)", "inhibition at 20 µM": "0%"}
{"molecule": "Cn1ccnc1-c1nc(O)c(O)c(C(=O)NC2CCC2)n1 [drawing 960]", "test_target": "Rac-1 (Homo sapiens, UniProt P63000)", "inhibition at 20 µM": "51 to 75%"}
{"molecule": "COc1c(O)nc(-c2ccccn2)nc1Nc1ccccc1 [drawing 1015]", "test_target": "Rac-1 (Homo sapiens, UniProt P63000)", "inhibition at 20 µM": "51 to 75%"}

Problem: Given the molecule Cc1cc(Cn2ccnc2-c2nc(O)c3scc(-c4ccccn4)c3n2)on1 [drawing 981] , what is its reported inhibition at 20 µM?
Solution: 51 to 75%

###

# test_target: KRas G12D mutant (Homo sapiens, UniProt P01116, G12D)
# Construct: fused on or other part: His tag, used for capture on nickel-coated plates
# procedure_details: Ras GTP binding domain inhibition assay (Cy3-GTP/Cy5-GTP competition)
# measurement_context: 20 μM; without SOS (Table 7A); read-out: KRas G12D mutant: % inh.
# Text: The following method was developed as specific assay for the following proteins: KRas wild type, KRas Q61H mutant, KRas G12C mutant, KRas G12D mutant, HRas wild type, Rac-1, and Rho-A. […] The small GTPases proteins: KRas wild type. KRas Q61H mutant, KRas G12C mutant, KRas G12D mutants, HRas wild type, Rac-1, and Rho-A were expressed as His-tagged proteins. In addition, the Guanosine nucleotide Exchange Factor (GEF) Sos protein (residues 556-1049) was expressed as a His-tagged protein. […]
measured_parameter: inhibition at 20 µM

Problem: Any idea what inhibition at 20 µM was measured for COCCn1ccnc1-c1nc(O)c2scc(-c3ccc(OCC(C)C)nc3)c2n1 [drawing 898] ?
Solution: 51 to 75%

Problem: What does the data say about its inhibition at 20 µM? Entry: CO[C@H]1C[C@@H](Nc2nc(-c3nccn3C)nc3sc(C(=O)NC(C)C)c(-c4ccccc4)c23)C1 [drawing 920]
Solution: 51 to 75%

Problem: What value of inhibition at 20 µM has been recorded for this entry: COc1cccc(-c2sc3nc(-c4nc(C)cn4C)nc(N[C@@H]4CC[C@H](OC)C4)c3c2C)c1F [drawing 896]
Solution: 1 to 25%

###

# test_target: Rac-1 (Homo sapiens, UniProt P63000)
# procedure_details: Ras GTP binding domain inhibition assay (Cy3-GTP/Cy5-GTP competition)
# measurement_context: without SOS, read-out: Rac-1: % inh.
Listed molecules paired with reported inhibition at 20 µM

Here is how some molecules turned out for inhibition at 20 µM.
{"molecule": "COC1CCN(c2nc(-c3nccn3C)nn3cc(-c4ccccc4)c(-c4ccccc4)c23)C1 (centres unmarked) [drawing 931]", "inhibition at 20 µM": "26 to 50%"}
{"molecule": "Cc1cc(Cn2ccnc2-c2nc(O)c3scc(-c4ccccn4)c3n2)on1 [drawing 981]", "inhibition at 20 µM": "51 to 75%"}
{"molecule": "COCCNc1nc(-c2cn(C)cn2)nc2sc(-c3cccc(OC)c3Cl)c(-c3ccc(OC)cc3)c12 [drawing 932]", "inhibition at 20 µM": "51 to 75%"}

Problem: Param readout= inhibition at 20 µM; system= Rac-1 (Homo sapiens, UniProt P63000); entry= COc1c(O)nc(-c2ccccn2)nc1Oc1ccccc1 [drawing 948] ; returns value.
Solution: 76 to 100%

Problem: Reported inhibition at 20 µM for Rac-1 (Homo sapiens, UniProt P63000), given CCn1cc(Nc2nc(-c3ccccn3)nc(O)c2OC)cn1 [drawing 1016] ?
Solution: 51 to 75%

###

# Tested on: KRas wild type
# procedure_details: Ras GTP binding domain inhibition assay (Cy3-GTP/Cy5-GTP competition)
# Design: species or system human
# measurement_context: 20 μM; with SOS
measured_parameter: KRas wild type + SOS: % inh.

// known answers, use as guide
{"molecule": "O=C(NCc1ccccc1)c1nc(-c2ccccn2)nc(O)c1O [drawing 821]", "val": "B (26-50% inhibition)"}
{"molecule": "COCC(C)Nc1nc(-c2nccn2C)nc2sc(-c3ccn(C)n3)c(-c3ccc(OC)cc3)c12 (centres unmarked) [drawing 869]", "val": "A (1-25% inhibition)"}
{"molecule": "COC1CCN(c2nc(-c3nccn3C)nc3sc(-c4cccnc4)c(-c4ccccc4)c23)C1.Cl (centres unmarked)", "val": "C (51-75% inhibition)"}
{"molecule": "CN(Cc1ccccc1)C(=O)c1nc(-c2ccccn2)nc(O)c1O [drawing 799]", "val": "B (26-50% inhibition)"}
{"molecule": "Oc1nc(-c2cn3ccccc3n2)nc2c(-c3ccccn3)csc12 [drawing 816]", "val": "A (1-25% inhibition)"}
{"molecule": "COc1c(O)nc(-c2ccccn2)nc1Oc1ccccc1 [drawing 813]", "val": "B (26-50% inhibition)"}

Then this molecule:
Problem: Recorded KRas wild type + SOS: % inh. of COCC(C)Nc1nc(-c2nccn2C)nc2sc(-c3ccn(C)n3)c(-c3ccccc3)c12 (centres unmarked) [drawing 864] , please.
Solution: C (51-75% inhibition)

###

inhibition at 10 µM reference
# Tested on: MIA PaCa-2 pancreatic cancer cell line
# procedure_details: Cell proliferation assay (DAPI)
# Type: cell-based
# measurement_context: Homo sapiens; 10 μM, MIA PaCa-2 (Table 5A); read-out: % Inhibition of cell proliferation, MIA PaCa-2 % inh

Look over these answered cases.
{"compound": "CO[C@H]1CC[C@@H](Nc2nc(-c3nc(C)cn3C)nc3sc(-c4cccc5[nH]ncc45)c(C)c23)C1 [drawing 632]", "inhibition at 10 µM": "76 to 100%"}
{"compound": "CO[C@H]1CC[C@@H](Nc2nc(-c3ncc[nH]3)nc3sc(-c4ccn(C)n4)c(-c4ccccc4)c23)C1 [drawing 646]", "inhibition at 10 µM": "76 to 100%"}
{"compound": "COc1c(O)nc(-c2ccccn2)nc1Nc1ccccc1 [drawing 615]", "inhibition at 10 µM": "76 to 100%"}
{"compound": "CO[C@H]1C[C@@H](Nc2nc(-c3ncc[nH]3)nc3sc(-c4ccn(C)n4)c(-c4ccccc4)c23)C1 [drawing 645]", "inhibition at 10 µM": "76 to 100%"}
{"compound": "CO[C@H]1CC[C@@H](Nc2nc(-c3nccn3C)nc3sc(C(=O)NC(C)C)c(-c4ccccc4)c23)C1 [drawing 659]", "inhibition at 10 µM": "76 to 100%"}
{"compound": "Cn1ccc(-c2sc3nc(-c4nccn4C)nc(N[C@H]4C[C@@H](O)C4)c3c2-c2ccccc2)n1 [drawing 643]", "inhibition at 10 µM": "0%"}
{"compound": "Cn1ccc(-c2sc3nc(-c4nccn4C)nc(O)c3c2-c2ccccc2)n1 [drawing 639]", "inhibition at 10 µM": "76 to 100%"}
{"compound": "COc1cccc(-c2sc3nc(-c4nccn4C)nc(NC4CCC(OC)C4)c3c2-c2ccccc2)c1F (stereo not drawn) [drawing 618]", "inhibition at 10 µM": "76 to 100%"}

Then this compound:
Problem: // query inhibition at 10 µM value for entry Cc1c(-c2ccn(C)n2)sc2nc(-c3nccn3C)nc(NCCCS(C)(=O)=O)c12 [drawing 651]
Solution: 0%
